System: Type-1 angiotensin II receptor B (Rattus norvegicus, UniProt P29089) | Read-out: Ki | Origin: multiple publications
Target: Type-1 angiotensin II receptor B (Rattus norvegicus, UniProt P29089)
Sequence (P29089 whole entry): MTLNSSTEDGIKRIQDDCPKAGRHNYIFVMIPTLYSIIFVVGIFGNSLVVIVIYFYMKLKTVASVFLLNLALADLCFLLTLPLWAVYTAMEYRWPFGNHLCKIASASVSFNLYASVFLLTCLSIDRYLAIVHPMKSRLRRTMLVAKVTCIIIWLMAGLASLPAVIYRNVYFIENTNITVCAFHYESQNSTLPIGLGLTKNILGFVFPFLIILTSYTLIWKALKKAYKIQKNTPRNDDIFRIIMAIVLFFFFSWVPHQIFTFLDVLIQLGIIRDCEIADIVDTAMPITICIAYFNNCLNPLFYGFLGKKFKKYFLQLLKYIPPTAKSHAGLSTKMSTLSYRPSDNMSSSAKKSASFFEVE
Binary label based on Ki with cut-off 20 nM: below gives true, not below gives false.

{"mol": "CCCc1nc(C)n2nc(-c3ccccc3)nc2c1Cc1ccc(-c2ccccc2-c2nn[nH]n2)cc1", "target desc": "Type-1 angiotensin II receptor B (Rattus norvegicus, UniProt P29089)", "qualitative label": "false"}
{"mol": "O=C(O)c1c(Oc2ccc(-c3ccccc3-c3nn[nH]n3)cc2)c(C2CC2)nc2ccccc12", "target desc": "Type-1 angiotensin II receptor B (Rattus norvegicus, UniProt P29089)", "qualitative label": "true"}

Lab note: Ki threshold 20 nM. Does this molecule come in strictly under it? CCCCC1=NC2(CCCC2)C(=O)N1Cc1ccc(-c2ccccc2S(=O)(=O)Nc2onc(C)c2C)cc1
true

Find out if reported Ki for Cc1nc(C2CC2)c(Cc2ccc(-c3ccccc3-c3nn[nH]n3)cc2)c2nc(O)nn12 is less than 20 nM
false

is_below(Ki, 20 nM) for CCc1nn(Cc2ccc(-c3ccccc3-c3nn[nH]n3)cc2)/c(=N/C(=O)c2ccccc2Cl)s1 ?
true

Quick check: Ki of O=C(/N=c1\sc(C2CC2)nn1Cc1ccc(-c2ccccc2-c2nn[nH]n2)cc1)c1ccccc1Cl under 20 nM?
true
